Assay Target: mouse FGFR2b on cells (mouse) (UniProt P21803)
Protocol Description: flow cytometry, Expi293 cells overexpressing mouse FGFR2b
In this section, each of the binders is paired with its reported Emax (MFI).

Binder: BGAh9179 (antibody, human IgG1, kappa, V domains shown) VH: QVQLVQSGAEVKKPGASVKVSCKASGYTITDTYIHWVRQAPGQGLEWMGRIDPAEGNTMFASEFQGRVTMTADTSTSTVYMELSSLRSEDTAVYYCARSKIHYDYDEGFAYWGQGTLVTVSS VL: DIVLTQSPDSLAVSLGERATINCRASESVDDYGYSFLHWYQQKPGQPPKLLIYRASNLESGVPDRFSGSGSGTDFTLTISSLQAEDVAVYYCQQSNQNPRTFGGGTKVEIKR
Value Reported: 5.15e+06 MFI

Binder: BGAh9239 (antibody, human IgG1, kappa, V domains shown) VH: QVQLVQSGAEVKKPGSSVKVSCKASGYTFSIYWLNWVRQAPGQGLEWMGQIYPENADTNYSGKFKGRVTITADKSTSTAYMELSSLRSEDTAVYFCARGGFDYWGQGTLVTVSS VL: DIQMTQSPSSLSASVGDRVTITCRASENIYSNLAWYQQKPGKAPKLLIYTATNLAEGVPSRFSGSGSGTDFTLTISSLQPEDFATYYCQHFYGILYTFGQGTRLEIKR
Value Reported: 5.1e+06 MFI

Binder: BGAm1371 (antibody, V domains shown) VH: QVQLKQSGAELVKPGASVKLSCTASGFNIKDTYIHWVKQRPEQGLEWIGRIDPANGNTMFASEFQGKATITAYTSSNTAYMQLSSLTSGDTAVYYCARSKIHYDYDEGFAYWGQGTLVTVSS VL: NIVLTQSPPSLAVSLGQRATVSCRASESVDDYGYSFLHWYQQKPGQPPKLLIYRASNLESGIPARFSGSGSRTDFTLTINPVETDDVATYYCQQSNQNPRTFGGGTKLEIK
Value Reported: 4.98e+06 MFI

Now, please, on to the next binder.
Consider the binder BGAm1823 (antibody, V domains shown) VH: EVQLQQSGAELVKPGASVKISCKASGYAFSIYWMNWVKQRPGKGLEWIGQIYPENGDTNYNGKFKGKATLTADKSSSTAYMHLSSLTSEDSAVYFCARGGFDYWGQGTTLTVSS VL: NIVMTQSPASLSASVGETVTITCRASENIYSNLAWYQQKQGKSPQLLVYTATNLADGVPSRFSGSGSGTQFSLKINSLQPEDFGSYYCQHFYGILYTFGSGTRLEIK and give its measured Emax (MFI).
5.19e+06 MFI
